Molecular target: Cathepsin S (Homo sapiens)
Sequence (P25774 whole entry): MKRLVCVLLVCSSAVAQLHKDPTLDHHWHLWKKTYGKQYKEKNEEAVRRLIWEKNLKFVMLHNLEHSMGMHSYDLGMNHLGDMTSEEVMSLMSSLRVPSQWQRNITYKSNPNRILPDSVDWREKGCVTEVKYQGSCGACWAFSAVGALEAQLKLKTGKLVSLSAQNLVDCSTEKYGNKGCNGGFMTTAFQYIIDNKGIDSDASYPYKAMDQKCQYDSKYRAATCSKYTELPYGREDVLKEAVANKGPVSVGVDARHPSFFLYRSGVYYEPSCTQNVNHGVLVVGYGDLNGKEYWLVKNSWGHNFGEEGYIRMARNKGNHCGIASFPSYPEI

structure	IC50
CC(C)(F)C[C@H](N[C@@H](c1ccc(-c2ccc(S(C)(=O)=O)cc2)cc1)C(F)(F)F)C(=O)NC1(C#N)CC1	< 500 nM

###

Target: Cathepsin B (Homo sapiens, UniProt P07858)
Assay: Inhibition of Cathepsin B (unknown origin) assessed as inhibition of AFC release using sequence RR labelled with AFC as substrate by fluorescence based analysis
pIC50: −log10 of the molar value.
# reported pIC50; entries follow
measuredProperty: pIC50

structure	testTarget	measuredProperty	measured
CC(C)(C)CN(Cc1ccc(-c2ccccc2)cc1)c1nccc(C#N)n1	Cathepsin B (Homo sapiens, UniProt P07858)	pIC50	< 3.30
CC(C)(C)CN(Cc1ccc2ccccc2c1)c1nccc(C#N)n1	Cathepsin B (Homo sapiens, UniProt P07858)	pIC50	< 3.30
CN1CCN(c2ccc(CN(CC(C)(C)C)c3nccc(C#N)n3)cc2)CC1	Cathepsin B (Homo sapiens, UniProt P07858)	pIC50	< 4.00

###

Target: Cathepsin K (Homo sapiens) (UniProt P43235)
Test: Inhibition of Cathepsin K (unknown origin) assessed as inhibition of AFC release at 1 uM using sequence LR labelled with AFC as substrate by fluorescence based analysis
Decision: inhibition >= 80% yields rule met, all other cases yield rule not met.

molecule	testTarget	categoryLabel
CC(C)(F)C[C@H](N[C@@H](c1ccc(-c2ccc(S(C)(=O)=O)cc2)cc1)C(F)(F)F)C(=O)NC1(C#N)CC1 [ODANACATIB]	Cathepsin K (Homo sapiens) (UniProt P43235)	rule met
CN1CCN(c2ccc(CN(CC(C)(C)C)c3nccc(C#N)n3)cc2)CC1	Cathepsin K (Homo sapiens) (UniProt P43235)	rule met
CC(C)(C)CN(Cc1ccc2ccccc2n1)c1nccc(C#N)n1	Cathepsin K (Homo sapiens) (UniProt P43235)	rule not met
CC(C)(C)CN(Cc1ccccc1)c1nccc(C#N)n1	Cathepsin K (Homo sapiens) (UniProt P43235)	rule not met
CC(C)(C)CN(Cc1ccc(-c2ccccc2)cc1)c1nccc(C#N)n1	Cathepsin K (Homo sapiens) (UniProt P43235)	rule not met

###

Target: UniProtKB P43235
Assay: Inhibition of Cathepsin K (unknown origin) assessed as inhibition of AFC release using sequence LR labelled with AFC as substrate by fluorescence based analysis
pIC50: −log10 of the molar value.
measuredProperty: pIC50

structure	measured
CN1CCN(c2ccc(CN(CC(C)(C)C)c3nccc(C#N)n3)cc2)CC1	7.21

###

Target: Cathepsin K (Homo sapiens) (UniProt P43235)
Test: Inhibition of Cathepsin K (unknown origin) assessed as inhibition of AFC release at 10 uM using sequence LR labelled with AFC as substrate by fluorescence based analysis
Collected inhibition values appear next to each entry.
measuredProperty: inhibition

structure	testTarget	measuredProperty	measured
CC(C)(F)C[C@H](N[C@@H](c1ccc(-c2ccc(S(C)(=O)=O)cc2)cc1)C(F)(F)F)C(=O)NC1(C#N)CC1	Cathepsin K (Homo sapiens) (UniProt P43235)	inhibition	100%
CC(C)(C)CN(Cc1ccc(Cl)cc1)c1nccc(C#N)n1	Cathepsin K (Homo sapiens) (UniProt P43235)	inhibition	88.3%
CC(C)(C)CN(Cc1ccc2ccccc2c1)c1nccc(C#N)n1	Cathepsin K (Homo sapiens) (UniProt P43235)	inhibition	89.7%
CC(C)(C)CN(Cc1cc(Br)cs1)c1nccc(C#N)n1	Cathepsin K (Homo sapiens) (UniProt P43235)	inhibition	75.8%
CN1CCN(c2ccc(CN(CC(C)(C)C)c3nccc(C#N)n3)cc2)CC1	Cathepsin K (Homo sapiens) (UniProt P43235)	inhibition	99.1%
N#Cc1ccnc(N(Cc2ccc(Br)cc2)CC2CCCCC2)n1	Cathepsin K (Homo sapiens) (UniProt P43235)	inhibition	73.2%
Cc1ncc(CN(CC(C)(C)C)c2nccc(C#N)n2)s1	Cathepsin K (Homo sapiens) (UniProt P43235)	inhibition	93.7%
CC(C)(C)CN(Cc1ccc2cccnc2c1)c1nccc(C#N)n1	Cathepsin K (Homo sapiens) (UniProt P43235)	inhibition	93.4%
CC(C)(C)CN(Cc1ccc2ccccc2n1)c1nccc(C#N)n1	Cathepsin K (Homo sapiens) (UniProt P43235)	inhibition	87.4%
CC(C)(C)CN(Cc1ccc(Br)cn1)c1nccc(C#N)n1	Cathepsin K (Homo sapiens) (UniProt P43235)	inhibition	32.2%
CC(C)(C)CN(Cc1cccc(-c2ccccc2)c1)c1nccc(C#N)n1	Cathepsin K (Homo sapiens) (UniProt P43235)	inhibition	45.5%
CC(C)(C)CN(Cc1ccc(-c2ccccc2)cc1)c1nccc(C#N)n1	Cathepsin K (Homo sapiens) (UniProt P43235)	inhibition	83.3%
N#Cc1ccnc(N(Cc2ccc(Br)cc2)C2CCCCC2)n1	Cathepsin K (Homo sapiens) (UniProt P43235)	inhibition	42.8%
CC(C)(C)CN(Cc1ccc(F)cc1)c1nccc(C#N)n1	Cathepsin K (Homo sapiens) (UniProt P43235)	inhibition	90.6%
CC(C)(C)CN(Cc1ccc(Br)cc1)c1nccc(C#N)n1	Cathepsin K (Homo sapiens) (UniProt P43235)	inhibition	91.3%
CC(C)(C)CN(Cc1ccccc1)c1nccc(C#N)n1	Cathepsin K (Homo sapiens) (UniProt P43235)	inhibition	82.7%

###

In this section we review reported inhibition values for a set of compounds.
Molecular target: UniProt P43235
Sequence (whole entry): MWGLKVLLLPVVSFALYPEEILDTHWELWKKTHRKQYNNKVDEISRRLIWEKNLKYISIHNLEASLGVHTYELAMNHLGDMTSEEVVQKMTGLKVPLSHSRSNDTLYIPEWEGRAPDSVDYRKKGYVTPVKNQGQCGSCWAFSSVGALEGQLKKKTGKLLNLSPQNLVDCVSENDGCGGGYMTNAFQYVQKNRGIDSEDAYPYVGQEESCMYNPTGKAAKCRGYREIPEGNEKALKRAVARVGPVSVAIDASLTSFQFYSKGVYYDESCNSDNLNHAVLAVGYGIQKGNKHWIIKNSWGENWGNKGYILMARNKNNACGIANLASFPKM
Experiment: Inhibition of Cathepsin K (unknown origin) assessed as inhibition of AFC release at 1 uM using sequence LR labelled with AFC as substrate by fluorescence based analysis
measuredProperty: inhibition

structure	measured
CC(C)(C)CN(Cc1cccc(-c2ccccc2)c1)c1nccc(C#N)n1	33.6%
Cc1ncc(CN(CC(C)(C)C)c2nccc(C#N)n2)s1	52.6%
CC(C)(C)CN(Cc1cc(Br)cs1)c1nccc(C#N)n1	43.9%
N#Cc1ccnc(N(Cc2ccc(Br)cc2)C2CCCCC2)n1	16.8%
CC(C)(C)CN(Cc1ccc(F)cc1)c1nccc(C#N)n1	56.2%
CC(C)(C)CN(Cc1ccc2cccnc2c1)c1nccc(C#N)n1	48%
CC(C)(C)CN(Cc1ccc(Br)cc1)c1nccc(C#N)n1	79.8%
CC(C)(C)CN(Cc1ccc(Cl)cc1)c1nccc(C#N)n1	61.3%
CC(C)(C)CN(Cc1ccc2ccccc2c1)c1nccc(C#N)n1	86.5%
N#Cc1ccnc(N(Cc2ccc(Br)cc2)CC2CCCCC2)n1	47.4%
